Catalogue of compounds with associated viability, T/C
Test system: 695427-040-R-J1-PDC complex spheroid viability
Assay: Anticancer human tumor 695427-040-R-J1-PDC patient-derived colon adenocarcinoma cell line growth inhibition [POLQ]
Conditions: second compound 3.16 µM; first compound 3.16 µM; hits give low values
Kindly answer with a numeric value in %, unit omitted.

COMPOUND: CCc1cc2c(N3CCc4c(cc(Cn5ccnc5)cc4-c4cn(C)nc4C(F)(F)F)C3=O)ccnc2c(OC)n1 + Nc1ccc(C#CCN(C(=O)Cc2ncc(C(F)(F)F)cc2C(F)(F)F)c2ccc(F)cc2)nn1
UNIT STRING: %
viability, T/C: 103
--
COMPOUND: COc1ccc([C@@H](O)c2cc(-c3ncnc4cc(N5CCOCC5)ccc34)c(F)cc2Cl)nn1 + COC1C(OC(N)=O)C(O)C(Oc2ccc3c(O)c(NC(=O)c4ccc(O)c(CC=C(C)C)c4)c(=O)oc3c2C)OC1(C)C
UNIT STRING: %
viability, T/C: 83.5
--
COMPOUND: CC1COCCN1c1cc(-c2ccnn2C)c2ccnc(-c3ccn[nH]3)c2n1 (configuration not stated) + Nc1ccc(C#CCN(C(=O)Cc2ncc(C(F)(F)F)cc2C(F)(F)F)c2ccc(F)cc2)nn1
UNIT STRING: %
viability, T/C: 61.8
--
COMPOUND: COc1cccc2c1C(=O)c1c(O)c3c(c(O)c1C2=O)CC(O)(C(=O)CO)CC3OC1CC(N)C(O)C(C)O1 (configuration not stated) + Nc1ccc(C#CCN(C(=O)Cc2ncc(C(F)(F)F)cc2C(F)(F)F)c2ccc(F)cc2)nn1
UNIT STRING: %
viability, T/C: 76.9
--
COMPOUND: O=C(Nc1ccc(O)c(NS(=O)(=O)c2ccc(F)cc2)c1)c1ccc(-c2ccccc2)cc1 + Cc1cccc(N(C)C(=O)C2C(O)CCN2c2nc(C)cc(C(F)(F)F)c2C#N)c1
UNIT STRING: %
viability, T/C: 103
--
COMPOUND: COc1cc(C2c3cc4c(cc3C(OC3OC5COC(C)OC5C(O)C3O)C3COC(=O)C23)OCO4)cc(OC)c1O (configuration not stated) + Nc1ccc(C#CCN(C(=O)Cc2ncc(C(F)(F)F)cc2C(F)(F)F)c2ccc(F)cc2)nn1
UNIT STRING: %
viability, T/C: 101

In: Looking for the measured viability, T/C of CC1COCCN1c1cc(C2(S(C)(=N)=O)CC2)nc(-c2ccnc3[nH]ccc23)n1 (configuration not stated) + COC1C(OC(N)=O)C(O)C(Oc2ccc3c(O)c(NC(=O)c4ccc(O)c(CC=C(C)C)c4)c(=O)oc3c2C)OC1(C)C , can you help?
Out: 107

* * *

System: 695427-040-R-J1-PDC complex spheroid viability
Experiment: Anticancer human tumor 695427-040-R-J1-PDC cell line growth inhibition [POLQ];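 note: spheroids exposed to compounds for seven days; 100% = DMSO vehicle control viability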
Details: second compound 0.0316 µM; first compound 10 µM; hits give low values
READOUT KIND: viability, T/C (%)
Kindly answer with a numeric value in %, unit omitted.

The following compounds have reported results that may help.
COMPOUND: Nc1ccn(C2OC(CO)C(O)C2(F)F)c(=O)n1 (stereo not drawn) + COC1C(OC(N)=O)C(O)C(Oc2ccc3c(O)c(NC(=O)c4ccc(O)c(CC=C(C)C)c4)c(=O)oc3c2C)OC1(C)C
READOUT KIND: viability, T/C
RECORDED MEASUREMENT: 55.2
--
COMPOUND: COc1ccc([C@@H](O)c2cc(-c3ncnc4cc(N5CCOCC5)ccc34)c(F)cc2Cl)nn1 + Cc1cccc(N(C)C(=O)C2C(O)CCN2c2nc(C)cc(C(F)(F)F)c2C#N)c1
READOUT KIND: viability, T/C
RECORDED MEASUREMENT: 57.6

Now for the compound whose viability, T/C we want.
In: What reported viability, T/C corresponds to COc1cc2cc(C(=O)CCC(=O)O)sc2cc1OC + Cc1cccc(N(C)C(=O)C2C(O)CCN2c2nc(C)cc(C(F)(F)F)c2C#N)c1 on 695427-040-R-J1-PDC complex spheroid viability?
Out: 92
